tested on: Crotalus adamanteus; test: Activity of Crotalus adamanteus venom PLA2 assessed as 1-hexadecanoyl-2-(1-pyrenedecanoyl)-sn-glycero-3-phosphoglycerol hydrolysis at 0.30 uM
quantity.kind: Km
Dear colleague, please send the value followed by its unit.

{"molecule": "CC(=O)c1c(O)cc(O)cc1O [2,4,6-TRIHYDROXYACETOPHENONE]", "quantity.kind": "Km", "experimental.result": "28.2 mM"}
{"molecule": "Oc1cc(O)cc(O)c1", "quantity.kind": "Km", "experimental.result": "23.2 mM"}
{"molecule": "CC(=O)c1c(O)cccc1O", "quantity.kind": "Km", "experimental.result": "7.78 mM"}
{"molecule": "CC(=O)c1ccc(O)cc1O", "quantity.kind": "Km", "experimental.result": "7.57 mM"}

Switching to the query record.
Input: Field request: Km | item: `Oc1cccc(O)c1`
Output: 24.8 mM

Where these numbers come from: ChEMBL document CHEMBL1152847
